System: OVCAR-4
Assay: NCI tumour cell line growth inhibition, 48 h
Active and inactive are the calls of the source. No stated cut-off is given here; in the data, active = GI50 up to about 1.1 µM and inactive = higher.
Can you answer with just one of these options? Yes = active, No = inactive

Compound	Target entity	Assigned class
COc1ccc2cc1Oc1ccc(cc1)CC1c3cc(OC)c(cc3CCN1C)Oc1c(OC)c(OC)cc3c1C(C2)N(C)CC3 (centres undefined)	OVCAR-4	No

Test call, this compound: `O=C1C2=C(C3=NCCc4c[nH]c1c43)c1c(cc(Br)c(O)c1Br)CCN2`
No

Test call, this compound: `CCOc1ccc(/C=C2\NC(=S)N(/C=C3\C(=O)Oc4ccccc4C3=O)C2=O)cc1`
No

Test call, this compound: `O=C(Nc1nccs1)NS(=O)(=O)n1cnc2ccccc21`
No

Test call, this compound: `CCOC(=O)N1c2ccccc2S(=O)(=O)c2ccccc21`
No

Test call, this compound: O/N=C1\C(=C\c2ccc3c(c2)OCCO3)CCCC1C(NO)c1ccc2c(c1)OCCO2 (centres undefined)
No

Test call, this compound: `C[C@]12CC/C(=N\O)C=C1CC[C@@H]1[C@@H]2CC[C@]2(C)C(=N/O)/C(=C/c3ccncc3)C[C@@H]12`
No

Test call, this compound: CN(C)c1ccc2cc3ccc(N(C)C)cc3nc2c1 [ACRIDINE ORANGE]
Yes

Test call, this compound: `CCCCN(C)/N=N/c1[nH]cnc1C(N)=O`
No

Values compiled from ChEMBL document CHEMBL1201862.
